System: HUVEC
Test: Inhibition of FGF-stimulated HUVEC cell proliferation assessed as 5-bromo-2-deoxyuridine incorporation
Assay type: functional, cell-based
Conditions: Homo sapiens
For each entry below, report its IC50 value.
Dear colleague, please return just the value in nM, with no unit written.

So what does the record say about IC50 for Cc1cc2c(F)c(Oc3ncnn4cc(OC[C@H](C)O)c(C)c34)ccc2[nH]1 ? 1010

Then Cc1cc2c(F)c(Oc3ncnn4cc(OC[C@@H](C)O)c(C)c34)ccc2[nH]1 ? 695

----------
Experiment: AUC (0 to t) in cynomolgus monkey plasma at 10 mg/kg, po administered as single dose via gavage by LC/MS analysis
Assay type: ADME, organism-based, Macaca fascicularis
Parameters: dose 10 mg/kg, route oral
assay.endpoint: AUC(0-t) (ng·h/mL)
Dear colleague, please return just the value in ng·h/mL, with no unit written.

So what does the record say about AUC(0-t) for Cc1cc2c(F)c(Oc3ncnn4cc(OC[C@@H](C)O)c(C)c34)ccc2[nH]1 ? 6800

----------
Assay: Cmax in Sprague-Dawley rat plasma at 60 mg/kg, po administered as single dose via gavage by LC/MS analysis
Format: ADME, organism-based
Parameters: dose 60 mg/kg, route oral
assay.endpoint: Cmax (ng/mL)
Dear colleague, please return just the value in ng/mL, with no unit written.

So what does the record say about Cmax for Cc1cc2c(F)c(Oc3ncnn4cc(OC[C@@H](C)O)c(C)c34)ccc2[nH]1 ? 3500

----------
Test: Cmax in cynomolgus monkey plasma at 10 mg/kg, po administered as single dose via gavage by LC/MS analysis
Type: ADME, organism-based, Macaca fascicularis
Design: dose 10 mg/kg, route oral
assay.endpoint: Cmax (ng/mL)
Dear colleague, please return just the value in ng/mL, with no unit written.

So what does the record say about Cmax for Cc1cc2c(F)c(Oc3ncnn4cc(OC[C@@H](C)O)c(C)c34)ccc2[nH]1 ? 1400

----------
Assay: Tmax in healthy human plasma at 400 mg, po administered as single dose via gavage by LC/MS analysis
Type: ADME, organism-based
assay.endpoint: Tmax (h)
Dear colleague, please return just the value in h, with no unit written.

So what does the record say about Tmax for Cc1cc2c(F)c(Oc3ncnn4cc(OC[C@@H](C)O)c(C)c34)ccc2[nH]1 [BRIVANIB] ? 2
